Reference source: ChEMBL document CHEMBL4513216

Tested on: Plasmodium berghei
testSummary: Screen against P. berghei liver stage (PbLuc), transformed with Luciferase, at 2uM
Format: functional, HepG2
conditionDescription: tested at 2 uM
About 2,700 (4%) of roughly 68,000 compounds showed an effect of 50% or more. The list comes from a sample in which strong results are over-represented; it also holds close analogues and randomly drawn compounds.
Let's look at some compounds and their measured INHIBITION.
Give your result in % as a bare value.

Worked cases, answers included:
CN(Cc1ccncc1)C1COC2(CCN(Cc3ccco3)CC2)C1 (stereo unspecified)	45.36
Cc1nn(C)c(N2CCOCC2)c1CNC1CCC(O)CC1 (stereo unspecified)	-5.7
COc1c[nH]c(C(=O)Nc2nc(C(C)(C)C)cs2)cc1=O	34.71

# input Fill in the blank: the reported INHIBITION of CCOC(=O)Cc1csc(NC(=O)c2cc(=O)c(OC)c[nH]2)n1 is ____.
# output -5.51

# input Fill in: INHIBITION of Cc1nn(C)c(N2CCOCC2)c1CNCC1CCS(=O)(=O)C1 (stereo unspecified) is ___
# output 5.17

# input Please report the recorded INHIBITION for Cc1nn(C)c(N2CCOCC2)c1CNCC1CCN(C2CC2)C1 (stereo unspecified) .
# output 59.03

* * *

Tested on: Plasmodium berghei
testSummary: Screen against P. berghei liver stage (PbLuc), transformed with Luciferase, at 2uM
Format: functional, HepG2
conditionDescription: tested at 2 uM
The campaign covered roughly 68,000 compounds. About 2,700 (4%) showed an effect of 50% or more. The entries come from a sample that favours strong results as a whole.
# binarize INHIBITION: threshold 20% inclusive, high side yes (1), low side no (0)

Known results for molecules:
COc1ccc2c(c1)OCC(CNC(=O)c1cc[nH]c1C)C2 (configuration not stated)	yes (1)
CCCN(CCC)S(=O)(=O)NC(C)C(=O)N(C)C (configuration not stated)	no (0)
CCOC(=O)c1cc2n(n1)CCCO2	no (0)
O=C1CC[C@H]2CN(Cc3ncc[nH]3)CC[C@H]2N1CC1CCNCC1	no (0)

# input Dear colleague, could you confirm whether COc1ccc2c(c1)OCC(CNC(=O)c1ccncc1)C2 (configuration not stated) has INHIBITION at or above 20%?
# output yes (1)

# input Could you please find out whether Cc1cc(C)c(CNC(=O)NCc2ccncc2)c(=O)[nH]1 has INHIBITION that meets 20% or exceeds it?
# output yes (1)

# input Threshold query (INHIBITION >= 20%) on N#Cc1cccc(CN2CCn3cc(Cn4cccn4)nc3C2)c1
# output yes (1)

# input Evaluate Cn1ccnc1N1CCN(C(=O)Cc2ccc(Cl)cc2)CC1 : INHIBITION at minimum 20%?
# output yes (1)

# input Can Cc1ccc(C(=O)N2CCCC(n3cncn3)C2)o1 (configuration not stated) be said to have INHIBITION at or above 20%?
# output no (0)

# input For this molecule, is measured INHIBITION 20% or higher? CN(Cc1cc(Br)cn1C)C(=O)c1cscn1
# output yes (1)

# input Please indicate if the recorded INHIBITION for COc1ccc(NC(=O)N2CCCC2c2ccco2)cc1OC (configuration not stated) meets or exceeds 20%.
# output no (0)

# input Assess whether reported INHIBITION for O=C(O)c1nnn(-c2ccc(C(F)(F)F)cc2)c1-c1ccncc1 sits at 20% or higher.
# output no (0)
